- tgt: Human recombinant MMP-1 (Homo sapiens, UniProt P03956)
- Construct: made in house; host or cells: MMP-1-transfected HT-1080 cells (spent media)
- Sequence (P03956 100-469): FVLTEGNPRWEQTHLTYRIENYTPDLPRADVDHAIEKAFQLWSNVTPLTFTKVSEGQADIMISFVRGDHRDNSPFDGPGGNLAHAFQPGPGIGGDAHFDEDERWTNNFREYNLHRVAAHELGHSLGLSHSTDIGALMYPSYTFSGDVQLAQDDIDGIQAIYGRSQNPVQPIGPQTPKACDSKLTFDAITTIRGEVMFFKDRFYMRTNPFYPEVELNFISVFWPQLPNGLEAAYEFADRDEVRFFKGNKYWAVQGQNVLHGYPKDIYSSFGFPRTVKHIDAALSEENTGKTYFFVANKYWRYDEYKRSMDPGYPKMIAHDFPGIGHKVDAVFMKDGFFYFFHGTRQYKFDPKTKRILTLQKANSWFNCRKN
- protocol_description: In vitro MMP inhibition, Ki determination (fluorogenic substrate II)
- Format: biochemical
- applied_conditions: value in parentheses
attribute_measured: Ki

Below are worked cases with known answers.
- molecular_string: "COCCN1CCC(C(=O)NO)(S(=O)(=O)c2ccc(OCCc3cccc(-c4ccc(F)c(F)c4)c3)cc2)CC1"
  tgt: "Human recombinant MMP-1 (Homo sapiens, UniProt P03956)"
  Ki: "> 10 µM"
- molecular_string: "O=C(COc1ccc(S(=O)(=O)C2(C(=O)NO)CCOCC2)cc1)c1cccc(-c2ccccc2)c1"
  tgt: "Human recombinant MMP-1 (Homo sapiens, UniProt P03956)"
  Ki: "> 10 µM"
- molecular_string: "CCCCc1ccc(COc2ccc(S(=O)(=O)C3(C(=O)NO)CCOCC3)cc2)cn1"
  tgt: "Human recombinant MMP-1 (Homo sapiens, UniProt P03956)"
  Ki: "> 10 µM"
- molecular_string: "COCCN1CCC(C(=O)NO)(S(=O)(=O)c2ccc(OCCc3cccc(-c4ccc(Cl)cc4)c3)cc2)CC1"
  tgt: "Human recombinant MMP-1 (Homo sapiens, UniProt P03956)"
  Ki: "> 10 µM"
- molecular_string: "COCCN1CCC(C(=O)NO)(S(=O)(=O)c2ccc(OCCCc3cccc(-c4ccc(F)cc4F)c3)cc2)CC1"
  tgt: "Human recombinant MMP-1 (Homo sapiens, UniProt P03956)"
  Ki: "> 10 µM"

Now consider the entry below.
[Q] Item: `O=C(NO)C1(S(=O)(=O)c2ccc(OCCCc3cccc(-c4ccc5c(c4)OCO5)c3)cc2)CCOCC1` Test system: Human recombinant MMP-1 (Homo sapiens, UniProt P03956) Read-out: Ki Value: ?
[A] > 10 µM

FYI, the data here is from patent US20040024024A1.
